The reported numbers originate from PubChem BioAssay (NCATS).

System: Zika virus NS2B-NS3 protease (unlinked complex)
Experiment: Primary screen GU Rhodamine qHTS for Zika virus inhibitors: Unlinked NS2B-NS3 protease assay (AID 1347159); also: nearly all actives have a fitted effect of over 60% in size
Conditions: Recombinant ZIKV NS2B-NS3 protease, Rhodamine110 substrate fluorescence; series mostly up to 107 µM
Inconclusive results are not listed. Active and inactive are the calls of the source. Calls follow the shape of the dose curve; as a rule, active = well fitted inhibition curve with a large enough effect; inconclusive = small, poorly fitted or top-dose-only effect; inactive = no such curve, though single readings can be large or run the other way.
Experimental readout: outcome

CC(=O)O[C@@]1(C)[C@@H]2CC(=C(C)C)C(=O)C[C@@]2(C)CC[C@H]1OC(=O)C1(C)OC1C (stereo partly specified) = inactive
COCC1OC(n2cnc3c(=O)[nH]cnc32)C(O)C1O (stereo unspecified) = inactive
O=C(CC1CC(c2ccc(F)cc2F)=NO1)N1CCOCC1 (stereo unspecified) = inactive
COc1ccc(Oc2c(Cl)cnn(C3c4ccccc4-c4ccccc43)c2=O)cc1 = inactive

Req: Any idea what outcome was measured for CC1(C)CC[C@]2(C(=O)O[C@@H]3O[C@H](CO)[C@@H](O)[C@H](O)[C@H]3O)CC[C@]3(C)C(=CCC4[C@@]5(C)C[C@H](O)[C@H](O[C@@H]6OC[C@@H](O)[C@H](O)[C@H]6O)[C@@](C)(CO)C5CC[C@]43C)C2C1 (stereo partly specified) ?
Resp: inactive

Req: Any idea what outcome was measured for C/C=C(\C)C(=O)OC[C@H]1O[C@H](O[C@H]2O[C@H](CO)[C@@H](O)[C@H](O)[C@H]2O[C@@H]2O[C@H](CO)[C@@H](O)[C@H](O)[C@H]2O)[C@H](O[C@@H]2O[C@H](CO)[C@@H](O)[C@H](O)[C@H]2O)[C@@H](O)[C@@H]1O ?
Resp: inactive

###

Target: Catechol O-methyltransferase (Homo sapiens) (UniProt P21964)
Sequence (P21964 whole entry, looked up): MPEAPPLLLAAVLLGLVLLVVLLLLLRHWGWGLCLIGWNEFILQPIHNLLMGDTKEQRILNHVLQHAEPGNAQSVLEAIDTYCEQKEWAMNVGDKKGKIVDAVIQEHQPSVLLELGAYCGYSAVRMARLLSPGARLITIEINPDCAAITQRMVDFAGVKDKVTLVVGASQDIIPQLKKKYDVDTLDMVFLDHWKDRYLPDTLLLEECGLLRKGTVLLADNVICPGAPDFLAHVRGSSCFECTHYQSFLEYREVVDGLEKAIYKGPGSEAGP
Test: Confirmatory Screen for Target Class Profiling of Small Molecule Inhibitors of Methyltransferases (AID 1745852)
Conditions: MTase-Glo luminescence, SAH detection, recombinant enzyme; measured here: COMT max response; stronger effect = lower value
Experimental readout: activity (%)
Expressed in %, but write only the number.

The cases that follow already have their activity on record.
COc1cc(C2Oc3c(OC)cc(/C=C/C(=O)OC4CC(O)(C(=O)O)CC(O)C4O)cc3C2CO)ccc1O (stereo not drawn) = -71.9
COc1ccc(CC(NC(C)=O)C(=O)O)cc1 (stereo not drawn) = -71.7

// switching to the query molecule
Req: Any idea what activity was measured for C=C[C@H]1[C@H](O[C@@H]2O[C@H](CO)[C@@H](O)[C@H](O)[C@H]2O)OC=C(C(=O)OC)[C@H]1CCO ?
Resp: -72.1

###

Form field: max response (one value per entry).
System: KB-3-1
Experiment: Cytotoxic Profiling of Annotated Libraries Using Quantitative High-Throughput Screening (AID 1296008); also: % is scaled to controls: 0 for no effect and ±100 for the full control effect; nearly all actives have a fitted effect of over 60% in size
Settings: Five cell lines viability, CellTiter-Glo ATP luminescence, 48-72 h; stronger effect = lower value
Method: Cell-based phenotypic screening is a commonly used approach to discover biological pathways, novel drug targets, chemical probes and high-quality hit-to-lead molecules. […] A pintool (Kalypsys) was used to transfer 23 nL of compound solution to the 1536-well assay plates. […] Plates were left at room temperature for 10 min before imaging the ATP-coupled luminescence using a ViewLux microplate imager (PerkinElmer, Waltham, MA).
Inconclusive results are not listed. Activity calls are given as the source filed them. Calls follow the shape of the dose curve; as a rule, active = well fitted inhibition curve with a large enough effect; inconclusive = small, poorly fitted or top-dose-only effect; inactive = flat fitted curve, though single readings scatter.

COc1ccc(S(=O)(=O)Nc2nc(-c3cccc([N+](=O)[O-])c3)cs2)cc1OC = 6.48% (inactive)
Fc1ccccc1-c1nc2ccn(Cc3ccc(-c4ccc(C(F)(F)F)cc4C(F)(F)F)nn3)cc-2n1 = -0.729% (inactive)
C[C@@H]1O[C@@H](O[C@H]2[C@H](O)[C@@H](O)[C@H](OC(=O)[C@]34CCC(C)(C)C[C@H]3C3=CCC5[C@@]6(C)CC[C@H](O[C@@H]7O[C@H](C(=O)O)[C@@H](O)[C@H](O)[C@H]7O)C(C)(C)C6CC[C@@]5(C)[C@]3(C)CC4)O[C@@H]2CO)[C@H](O)[C@H](O)[C@H]1O (stereo partly specified) = -0.526% (inactive)
CCOC(=O)COc1ccc2c(c1)C[C@@H](NC[C@H](O)c1cccc(Cl)c1)CC2 = 7.38% (inactive)
O=C(O)Cn1nnc(-c2ccc(CN(CCCCOc3ccc(CN4CCCC4)cc3)CCc3ccccc3)cc2)n1 = 9.81% (inactive)

// switching to the query molecule
Req: Any idea what max response was measured for c1cc(-c2cc(C3CCNCC3)[nH]n2)ccn1 ?
Resp: 2.66% (inactive)

###

Tested on: Zika virus NS2B-NS3 protease (unlinked complex)
Test: Primary screen GU Rhodamine qHTS for Zika virus inhibitors: Unlinked NS2B-NS3 protease assay (AID 1347159); also: nearly all actives have a fitted effect of over 60% in size; also: potency is read from the fitted curve at half-maximal effect
Details: Recombinant ZIKV NS2B-NS3 protease, Rhodamine110 substrate fluorescence; series mostly up to 107 µM
Records with an inconclusive call do not appear. Active and inactive are the calls of the source. Calls follow the shape of the dose curve; as a rule, active = well fitted inhibition curve with a large enough effect; inconclusive = small, poorly fitted or top-dose-only effect; inactive = no such curve, though single readings can be large or run the other way.
Experimental readout: Potency

The cases that follow already have their Potency on record.
COC(=O)C1=COC(OC2OC(CO)C(O)C(O)C2O)C2C(C)C(OC(=O)/C=C/c3ccc(O)cc3)C(O)C12 (stereo not given) = 28.2 µM (active)
CC(C)C1CCC(C(=O)N[C@@H](Cc2ccccc2)C(=O)O)CC1 (stereo not given in full) = 31.6 µM (active)
COC(=O)C1=COC(OC2OC(CO)C(O)C(O)C2O)C2C(C)CC(=O)C12O (stereo not given) = inactive
COc1cccc(CN(C(=O)CC(C)(C)C)C2CC(C(=O)N3CCNCC3)N(Cc3ccc4c(c3)OCO4)C2)c1 (stereo not given) = inactive
COc1cc(O)cc2c1C(=O)OC(C)CCCCCCC2 (stereo not given) = 20 µM (active)
C/C=C/C=C/C=C/C(=O)O[C@@H]1[C@@H](OC)C2=C(C(=O)N(C(CCC(=O)O)C(=O)O)C2)[C@@]2(C)CCCC(C)(C)[C@H]12 (stereo not given in full) = 4.47 µM (active)
CC(C)N(CCCNC(=O)Nc1ccc(C(C)(C)C)cc1)C[C@H]1O[C@@H](n2ccc3c(N)ncnc32)[C@H](O)[C@@H]1O = inactive
COc1cn(-c2ccc(-n3cccn3)cc2F)nc(-c2ccnn2-c2ccccc2)c1=O = inactive

Req: Notebook entry, Zika virus NS2B-NS3 protease (unlinked complex) assay: Potency of Cc1nc2ccccc2c(-c2ccc3c4c(ccnc24)CCO3)c1[C@H](OC(C)(C)C)C(=O)O = ?
Resp: inactive

Req: Notebook entry, Zika virus NS2B-NS3 protease (unlinked complex) assay: Potency of C=C1CC23CC(=O)C4C(CO)(CO)CCCC4(C)C2CCC1C3 (stereo not given) = ?
Resp: inactive

###

Experiment: Primary fluorescence-based thiol-reactive (MSTI) qHTS assay for identification of artifact compounds. (AID 1845221); also: nearly all actives have a fitted effect of over 65% in size
Details: MSTI thiol-reactivity probe, 1 h; series mostly up to 53.8 µM
Description: PI: Alexander Tropsha Ph.D. UNC Eshelman School of Pharmacy University of North Carolina, Chapel Hill, North Carolina Hits from high-throughput screening (HTS) of chemical libraries are often false positives due to their interference with the assay detection technology. […] Using these curated datasets, we developed and validated several Quantitative Structure-Interference Relationship (QSIR) models to predict nuisance behavior. […]
Records with an inconclusive call do not appear. Calls of active or inactive are those of the source. Calls come from the whole dose curve; as a rule, active = well fitted inhibition curve with a large enough effect; inconclusive = small, poorly fitted or top-dose-only effect; inactive = no such curve, though single readings can be large or run the other way.
In this exercise, the only acceptable responses are active, inactive

# count of solved cases: 3
COC(=O)C1=COC(OC2OC(CO)C(O)C(O)C2O)C2C(C)C(OC(=O)/C=C/c3ccc(O)cc3)C(O)C12 (centres undefined) = active
COc1cc(C2OCC3(O)C(c4ccc(O[C@@H]5O[C@H](CO)[C@@H](O)[C@H](O)[C@H]5O)c(OC)c4)OCC23O)ccc1O (some centres undefined) = inactive
CC1=C2C[C@@]3(C)C(CCC[C@@H]3C)C(O)C2(O)OC1=O (some centres undefined) = inactive

Now consider the entry below.
Req: Which outcome was entered for the compound COC(=O)C(CC1CCCC1)c1ccc(S(C)(=O)=O)cc1 (centres undefined) in this test?
Resp: inactive

###

Molecular target: Cytochrome P450 2D6 (Homo sapiens)
Experiment: Cytochrome P450 family 2 subfamily D member 6 (CYP2D6) small molecule antagonists: luciferase biochemical (cell-free) qHTS assay (AID 1645840); also: % is scaled to controls: 0 for no effect and ±100 for the full control effect; nearly all actives have a fitted effect of over 55% in size
Conditions: P450-Glo CYP2D6 enzyme, luciferin luminescence, 1 h; series mostly up to 57.4 µM
Results filed as inconclusive are left out. Active and inactive are the calls of the source. The call rests on the fitted dose curve; in most records, active means well fitted inhibition curve with a large enough effect in the repeat runs; inconclusive means weak or mixed curves; inactive means flat fitted curve, though single readings scatter.
Experimental readout: outcome

The cases that follow already have their outcome on record.
Cc1ccc2[nH]c(=O)c(C3=NN(C(=O)CCC(=O)O)C(c4ccc(Br)cc4)C3)c(-c3ccccc3)c2c1 (stereo not given) = inactive
Cn1c2ccc(NC(=O)c3ccccc3)cc2c(=O)n2nc(C(=O)O)cc12 = inactive
COc1cc(Cc2cnc(N)nc2N)c(C(C)C)cc1OC = inactive
O=C(NC1CCN(CC(F)(F)F)CC1)c1ccc(-c2cccc(F)c2)nc1 = inactive

// switching to the query molecule
Req: Any idea what outcome was measured for COc1cnc(-n2cnc(C)n2)c2[nH]cc(C(=O)C(=O)N3CCN(C(=O)c4ccccc4)CC3)c12 ?
Resp: inactive
